Experimental system: CRTH2 receptor (hCRTH2) (Homo sapiens)
Construct: expressed in transfected cells; host or cells: HEK cells (HEK-hCRTH2 cell line), membranes
Sequence (Q9Y5Y4 1-395): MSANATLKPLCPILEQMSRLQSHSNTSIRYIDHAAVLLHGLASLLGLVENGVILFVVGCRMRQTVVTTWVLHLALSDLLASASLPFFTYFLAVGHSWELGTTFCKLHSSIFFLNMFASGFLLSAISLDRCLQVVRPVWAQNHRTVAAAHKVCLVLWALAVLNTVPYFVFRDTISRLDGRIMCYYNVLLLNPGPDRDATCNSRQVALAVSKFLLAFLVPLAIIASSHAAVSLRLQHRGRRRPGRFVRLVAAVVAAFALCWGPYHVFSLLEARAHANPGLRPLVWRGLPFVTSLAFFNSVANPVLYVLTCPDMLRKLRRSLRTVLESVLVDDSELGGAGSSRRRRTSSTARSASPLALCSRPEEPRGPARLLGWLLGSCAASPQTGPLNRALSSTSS
Assay: Radioligand binding assay ([3H]PGD2 competition, membranes of HEK-hCRTH2 cell line)
Protocol conditions: 3.0 nM [3H]PGD2, HEK-hCRTH2 membranes, 60 min, room temperature; read-out: Ki
Metric name: Ki

{"columns": ["Compound", "Measurement"],
 "data": [
  ["CC1(c2cn3ccccc3n2)CC(c2ccc3c(=O)n(-c4ccc(F)cc4)c(CCCCC(=O)O)nc3c2)=NO1 (stereo not drawn) [Example 171]", "≤ 10 nM"]
]}

(Q) What does the data say about its Ki? Entry: O=C(O)CCCCc1nc2cc(-c3cc(CS(=O)(=O)c4ccccn4)on3)ccc2c(=O)n1-c1ccc(F)cc1 [Example 39I]
(A) 10 to 50 nM

(Q) What does the data say about its Ki? Entry: O=C(O)CCCCc1nc2cc(-c3noc(Cc4ccc(F)cc4)n3)ccc2c(=O)n1-c1ccc(F)cc1 [Example 36]
(A) ≤ 10 nM

====

Experimental system: CRTH2 receptor (hCRTH2) (Homo sapiens, UniProt Q9Y5Y4)
Construct: expressed in transfected cells; host or cells: HEK cells (HEK-hCRTH2 cell line), membranes
Assay: Radioligand binding assay ([3H]PGD2 competition, membranes of HEK-hCRTH2 cell line)
Protocol conditions: 3.0 nM [3H]PGD2, HEK-hCRTH2 membranes, 60 min, room temperature; read-out: Ki
Metric name: Ki

Check out these entries, answers already filled in.
{"columns": ["Compound", "Metric name", "Measurement"],
 "data": [
  ["C[C@@H](OCc1ccc(F)c(F)c1)c1cc(-c2ccc3c(=O)n(-c4ccc(F)cc4)c(CCCCC(=O)O)nc3c2)no1", "Ki", "10 to 50 nM"],
  ["C[C@@]1([C@@H](O)c2cccc(C#N)c2)CC(c2ccc3c(=O)n(-c4ccc(F)cc4)c(CCCCC(=O)O)nc3c2)=NO1", "Ki", "≤ 10 nM"],
  ["O=C(O)CCCCc1nc2cc(-c3cc(COCc4ccccc4)on3)ccc2c(=O)n1-c1ccc(F)cc1", "Ki", "10 to 50 nM"],
  ["C[C@]1(Cc2ccccc2)CC(c2ccc3c(=O)n(-c4ccccc4)c(CCCCC(=O)O)nc3c2)=NO1 [Example 26L]", "Ki", "10 to 50 nM"],
  ["CC(C)(C)OC(=O)NCc1cc(-c2ccc3c(=O)n(-c4ccc(F)cc4)c(CCCCC(=O)O)nc3c2)no1 [Example 24Q]", "Ki", "≤ 10 nM"]
]}

(Q) What does the data say about its Ki? Entry: CC1(c2ccncc2)CC(c2ccc3c(=O)n(-c4ccc(F)cc4)c(CCCCC(=O)O)nc3c2)=NO1 (stereo not shown)
(A) ≤ 10 nM

(Q) What does the data say about its Ki? Entry: O=C(O)CCCCc1nc2cc(-c3cc(CNS(=O)(=O)Cc4ccccc4)on3)ccc2c(=O)n1-c1ccc(F)cc1 [Example 24J]
(A) ≤ 10 nM
